Values were extracted from patent US20050209278A1.

Documented Ki across a set of compounds
Target: MMP-1 (Homo sapiens)
Construct: made in house; host or cells: MMP-1-transfected HT-1080 cells (spent media)
Sequence (P03956 100-469): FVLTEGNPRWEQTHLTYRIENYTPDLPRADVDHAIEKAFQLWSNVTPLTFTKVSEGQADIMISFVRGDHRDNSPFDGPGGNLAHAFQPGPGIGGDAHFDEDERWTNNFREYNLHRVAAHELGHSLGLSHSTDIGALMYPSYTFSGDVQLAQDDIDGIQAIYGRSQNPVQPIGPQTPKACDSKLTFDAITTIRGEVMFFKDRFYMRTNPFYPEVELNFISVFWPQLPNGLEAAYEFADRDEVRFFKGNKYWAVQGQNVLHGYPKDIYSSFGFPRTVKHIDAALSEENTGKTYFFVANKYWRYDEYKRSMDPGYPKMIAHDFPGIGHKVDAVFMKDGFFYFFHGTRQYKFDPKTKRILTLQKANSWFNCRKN
Test: In vitro MMP inhibition, Ki determination (fluorogenic substrate II)
Type: biochemical
Details: value not in parenthesis; read-out: MMP-1 Ki
Method: Several hydroxamic acids and salts thereof were analyzed in in vitro assays to determine their ability to inhibit the MMP cleavage of peptide substrates. […] and IC50 constants were calculated from the assayed hydroxamic acid-MMP interactions. […] The assays from which the Ki determinations were made were performed as follows. […] In the absence of MMP inhibitory activity, substrate II was cleaved at the Gly-Leu bond resulting in an increase of relative fluorescence. […]

Below, each entry is followed by its recorded Ki result.
In: Look up Ki: CCCc1cnc(N2CCN(S(=O)(=O)C3(C(=O)NO)CCN(CCOC)CC3)CC2)nc1
Out: > 10 µM

In: Look up Ki: O=C(NO)C1(S(=O)(=O)N2CCN(c3ccc(CCC(F)(F)F)cc3)CC2)CCOCC1
Out: > 10 µM

In: Look up Ki: CCCCc1ccc(N2CCN(S(=O)(=O)C(C)C(=O)NO)CC2)nc1 (centres unmarked)
Out: > 10 µM

Further cases:
In: Look up Ki: Cc1ccc(N2CCN(S(=O)(=O)C3(C(=O)NO)CCOCC3)CC2)nc1
Out: 1.38 µM

In: Look up Ki: CCCCCc1cnc(N2CCN(S(=O)(=O)C3(C(=O)NO)CCOCC3)CC2)s1
Out: > 10 µM

In: Look up Ki: CCCCOc1ccc(N2CCN(S(=O)(=O)C3(C(=O)NO)CCN(c4ccc(OC)c(OC)c4)CC3)CC2)cc1
Out: > 10 µM

In: Look up Ki: CCCCCc1cnc(N2CCN(S(=O)(=O)C3(C(=O)NO)CCOCC3)CC2)cn1
Out: > 10 µM

In: Look up Ki: O=C(NO)C1(S(=O)(=O)N2CCN(c3ncc(Br)cn3)CC2)CCOCC1 [Example 104]
Out: 0.835 µM

---

Documented pKi across a set of compounds
Target: MMP-13 (Homo sapiens, UniProt P45452)
Construct: made in house; host or cells: baculovirus / insect cells
Assay: In vitro MMP inhibition, Ki determination (fluorogenic substrate II)
Type: biochemical
Conditions: value not in parenthesis; read-out: MMP-13 Ki
# reply with the number alone; pKi is -log10 of concentration in mol/L

In: Can you look up pKi on MMP-13 (Homo sapiens, UniProt P45452) for CCCNC(=O)c1ccc(N2CCN(S(=O)(=O)C3(C(=O)NO)CCN(CCOC)CC3)CC2)cc1 [Example 175] ?
Out: 8.08

In: Can you look up pKi on MMP-13 (Homo sapiens, UniProt P45452) for O=C(NO)C1(S(=O)(=O)N2CCN(c3ccc(-c4ccccc4)cc3)CC2)CCOCC1 [Example 76] ?
Out: 9.40

In: Can you look up pKi on MMP-13 (Homo sapiens, UniProt P45452) for COCCN1CCC(C(=O)NO)(S(=O)(=O)N2CCN(c3ccc(Br)cc3)CC2)CC1 [Example 201] ?
Out: 8.87

In: Can you look up pKi on MMP-13 (Homo sapiens, UniProt P45452) for CCCCc1ccc(N2CCN(S(=O)(=O)C3(C(=O)NO)CCOCC3)CC2)nc1 [Example 168] ?
Out: 9.68

In: Can you look up pKi on MMP-13 (Homo sapiens, UniProt P45452) for CCCCOc1ccc(N2CCN(S(=O)(=O)C3(C(=O)NO)CCN(C(=O)N(C(C)C)C(C)C)CC3)CC2)cc1 [Example 244] ?
Out: 9.24

In: Can you look up pKi on MMP-13 (Homo sapiens, UniProt P45452) for CCc1ccc(N2CCN(S(=O)(=O)C3(C(=O)NO)CCOCC3)CC2)nc1 [Example 114] ?
Out: 9.13

In: Can you look up pKi on MMP-13 (Homo sapiens, UniProt P45452) for CCCCOc1ccc(N2CCN(S(=O)(=O)C3(C(=O)NO)CCN(c4nc5ccccc5s4)CC3)CC2)cc1 [Example 93] ?
Out: 7.59

Further cases:
In: Can you look up pKi on MMP-13 (Homo sapiens, UniProt P45452) for O=C(NO)C1(S(=O)(=O)N2CCN(c3ccc(-c4ccc(Cl)cc4)cn3)CC2)CCOCC1 [Example 60] ?
Out: 9.49

---

Target: MMP-13 (Homo sapiens)
Construct: made in house; host or cells: baculovirus / insect cells
Assay: MMP-13 inhibition (in vitro Ki)
Assay type: biochemical
Settings: Table 9; read-out: MMP-13 Ki (IC-50)
measured-attribute: Ki (nM)
Quick note: give the figure in nM, leave out the unit.

Below, each entry is followed by its recorded Ki result.
In: Look up Ki: O=C(NO)C1(S(=O)(=O)N2CCN(c3nnn(Cc4ccccc4)n3)CC2)CCOCC1
Out: 0.8

In: Look up Ki: CCS(=O)(=O)c1ccc(N2CCN(S(=O)(=O)C3(C(=O)NO)CCOCC3)CC2)cc1
Out: 42.2

In: Look up Ki: COC(=O)CCCCC1CCN(S(=O)(=O)C2(C(=O)NO)CCOCC2)CC1
Out: 1.08

In: Look up Ki: O=C(NO)C1(S(=O)(=O)N2CCC(c3ccc(CCC(F)(F)C(F)(F)F)cn3)CC2)CCC1
Out: 0.06

In: Look up Ki: CCCN(C(=O)CCCC1CCN(S(=O)(=O)C2(C(=O)NO)CCOCC2)CC1)c1ccccc1
Out: 23

In: Look up Ki: O=C(CCCCC1CCN(S(=O)(=O)C2(C(=O)NO)CCOCC2)CC1)N1CCc2ccccc2C1
Out: 0.18

In: Look up Ki: CN(C(=O)CCCCC1CCN(S(=O)(=O)C2(C(=O)NO)CCOCC2)CC1)c1ccccc1
Out: 1.18

In: Look up Ki: O=C(NO)C1(S(=O)(=O)N2CCC(c3ccc(C#CCc4ccccc4)cn3)CC2)CCOCC1
Out: 0.109

In: Look up Ki: C/C(COc1ccc(C2CCN(S(=O)(=O)C3(C(=O)NO)CCOCC3)CC2)nc1)=N/O
Out: 4.53

In: Look up Ki: O=C(NO)C1(S(=O)(=O)N2CCC(c3ccc(CCC(F)(F)C(F)(F)F)cn3)CC2)CCN(c2ccc(Cl)cc2)CC1
Out: 8.98

Further cases:
In: Look up Ki: O=C(NO)C1(S(=O)(=O)N2CCC(c3ccc(CCC(F)F)cn3)CC2)CCOCC1
Out: 0.474

In: Look up Ki: Cn1cc(-c2ccc(C3CCN(S(=O)(=O)C4(C(=O)NO)CCOCC4)CC3)nc2)cn1
Out: 2.14

In: Look up Ki: N#Cc1ccc(N2CCN(S(=O)(=O)C3(C(=O)NO)CCOCC3)CC2)cc1F
Out: 2.1

In: Look up Ki: CCCC(F)(F)c1ccc(C2CCN(S(=O)(=O)C3(C(=O)NO)CCOCC3)CC2)nc1
Out: 1.57

In: Look up Ki: O=C(CCCCN1CCN(S(=O)(=O)C2(C(=O)NO)CCOCC2)CC1)c1ccc(OC(F)(F)F)cc1
Out: 19.8

In: Look up Ki: Cc1ccc(N2CCC(C(=O)NO)(S(=O)(=O)N3CCC(c4ccc(CCC(F)(F)C(F)(F)F)cn4)CC3)CC2)cn1
Out: 0.34

---

Molecular target: MMP-14 (Homo sapiens, UniProt P50281)
Construct: The catalytic domain enzyme was expressed in E. coli inclusion bodies, solubilized in urea; made in house
Experiment: In vitro MMP inhibition, Ki determination (fluorogenic substrate II)
Type: biochemical
Conditions: value not in parenthesis; read-out: MMP-14 Ki
measured-attribute: Ki (µM)
Quick note: give the figure in µM, leave out the unit.

Below, each entry is followed by its recorded Ki result.
In: Look up Ki: CCCCc1ccc(N2CCN(S(=O)(=O)C3(C(=O)NO)CCN(CCOC)CC3)CC2)cc1F
Out: 1.86

In: Look up Ki: O=C(NO)C1(S(=O)(=O)N2CCN(c3ccc(COCC(F)(F)F)cc3)CC2)CCOCC1
Out: 7.57

In: Look up Ki: O=C(NO)C1(S(=O)(=O)N2CCN(c3ccc(OC4CCC4)c(F)c3)CC2)CCOCC1
Out: 2.36

Further cases:
In: Look up Ki: CCCCOc1ccc(N2CCN(S(=O)(=O)C3(C(=O)NO)CCN(c4ncc(CC)cn4)CC3)CC2)cc1
Out: 5.35

In: Look up Ki: CCCCOc1ccc(N2CCN(S(=O)(=O)C3(C(=O)NO)CCN(c4ccc(C)cn4)CC3)CC2)cc1
Out: 2.76

In: Look up Ki: CCCCOc1ccc(N2CCN(S(=O)(=O)C3(C(=O)NO)CCN(C(=O)c4ccco4)CC3)CC2)cc1
Out: 2.43
